System: human iPS cells
Assay: Cell adhesiveness evaluation 2 (synthetic peptides added to cells seeded on natural vitronectin)
Type: cell-based
Conditions: 100 μM synthetic polypeptide
measured_parameter: adhesion of cells to the natural vitronectin on addition of peptide

input_sequence="EGFNVDKKCQCDELCSYYQS (Peptide designed for comparative tests (Peptide-3))" measurement_target="human iPS cells" assay_result="not hindered"
input_sequence="DQESCKGRCTEGFNVDKKCQ (Peptide designed for comparative tests (Peptide-1))" measurement_target="human iPS cells" assay_result="not hindered"
input_sequence="DKKCQCDELCSYYQSCCTDY (Peptide designed for comparative tests (Peptide-4))" measurement_target="human iPS cells" assay_result="significantly hindered"
input_sequence="TAECKPQVTRGDVFTMPEDE (Peptide designed for comparative tests (Peptide-6))" measurement_target="human iPS cells" assay_result="significantly hindered"
input_sequence="KGRCTEGFNVDKKCQCDELC (Peptide designed for comparative tests (Peptide-2))" measurement_target="human iPS cells" assay_result="not hindered"
input_sequence="TAECKPQVTRGEVFTMPEDE (Peptide designed for comparative tests (Peptide-8))" measurement_target="human iPS cells" assay_result="not hindered"
input_sequence="CCTDYTAECKPQVTRGEVFT (Peptide designed for comparative tests (Peptide-7))" measurement_target="human iPS cells" assay_result="not hindered"
input_sequence="CCTDYTAECKPQVTRGDVFT (Peptide designed for comparative tests (Peptide-5))" measurement_target="human iPS cells" assay_result="significantly hindered"
